- experimental-details: yeast display, Sf9 membrane polyspecificity reagent, FACS + sequencing; frameworks hold sequencing errors
experimental-readout: polyreactivity (PSR sort gate)

# item-sequence, reported-value
measured = [
    ("QVQLVESGGGLVQAGGSLRLSCAASGFTFRSYAMGWYRQAPGKEREFVAAINGRSGSTYADSVKGRFTISRDNAKNTVYLQMNSLNPEDTAVYYCAAGQRHKNSNRPDNYWGQGSQVTVSS", "high polyreactivity"),
    ("QVQLVESGVGLVQAGGSLRLSCAASGFTFTRYAMGWYRQAPGKERELVAAISWTGGSTYYADSVKGRFTISRDNAKNTVYLQMNSLKPEDTAVYYCAGRFNYQWSKFGYWGQGTQVTVSS", "high polyreactivity"),
]

---

- experimental-details: yeast display, Sf9 membrane polyspecificity reagent, FACS + sequencing; frameworks hold sequencing errors
experimental-readout: polyreactivity (PSR sort gate)

Please review the entries below; each comes with its answer.
# item-sequence, experimental-readout, reported-value
records = [
    ("QVQLVESGGGLVQAGGSLSLSCAATGFTFRPYAMAWYRQATGKERELVAAITSGDSTNYADSVKGRFTISRDNAKKSVYLQMISVKAEDTAVFYCAADSTGRPSVSYDYWGQGTQVTVSS", "polyreactivity (PSR sort gate)", "low polyreactivity"),
    ("QVQLVESGGGLVQAGGSLRLSCADSGIIFTQYAMGWYRQAPGKERELVAGISKSGGSTYYADSVKGRFTISRDNAKNTVYLQMNSLKPEDTAVYYCAAPVPKTDKLLRMYYWGQGTQVTVSS", "polyreactivity (PSR sort gate)", "high polyreactivity"),
    ("QVQLVESGGGLVQAGGRLRLSCAASGFTLVGYAMGWSRQAPGKERELVAAISSGGGSTYYADSVKGRFTISRDNAKNTVYLQMNSLKPEDTAVYYCAVYVDYYGYGYWGQGTQVTVSS", "polyreactivity (PSR sort gate)", "high polyreactivity"),
    ("QVQLVESGGGLVQAGGSLRLSCAASGSIISYYAMGWYRQAPGKEWELVAAISWSGGSTYYADSVKGRFTISRDNAKNTVYLQRNSLTPEDTAVYYCAKYAYPRSRYTPYGSYDYWGQGTQVTVSS", "polyreactivity (PSR sort gate)", "high polyreactivity"),
    ("QVQLVESGGGLVQAGGSLRLSCAASGITFHSYAMGWYRQAPGKERELVAGISSGGSTNYADSVKGRFTISRDNAKNTVYLQMNSLKPEDTAVYYCNADTPFYEYDYWGQGTQVTVSS", "polyreactivity (PSR sort gate)", "low polyreactivity"),
]

Prompt line: State the recorded polyreactivity (PSR sort gate) for this entry: QVQLVESGGGLVQAGGSLRLSCAASGFIFRPYTMGWYRQAPGKERELVAAITSGGSTYYADSVKGRFTISRDNAKNTVYLQMNSLKPEDTAVYYCAARYQLYRRGYDYWGQGTQVTVSS
Response line: high polyreactivity

Prompt line: State the recorded polyreactivity (PSR sort gate) for this entry: QVQLVESGGGLVLAGGSLRLSCAASGRTFIGYALGWYRQAPGKERELVAAISPGGSTKYADSVKGRFTISRDNAKNTVYLQINSLKPEDNAVYYGAVGWSYYAGLRHRYYSGFDYWGQGTQVTVSS
Response line: low polyreactivity

Prompt line: State the recorded polyreactivity (PSR sort gate) for this entry: QVQLVESGGGLVQAGGSLRLSCAASGLTFHRYAMGWYRQAPGKERELVAAINYSGGRTYYADSVKGRFTISRDNAKNTLYLQMNSLKPEDTAVYYCAAPRASGYYWGQGTQVTVSS
Response line: high polyreactivity

Prompt line: State the recorded polyreactivity (PSR sort gate) for this entry: QVQLVESGGGLVQAGGSLRLSFSASGRTFPFYAMGWYRQEPGKERDLVAAITVSGGSTYYADSVKGRFTISRDNAKNTVYLQMNSLKPVDTAVYYCNAKRSDQSSKTFNYWGQGTQVTVSS
Response line: low polyreactivity

Prompt line: State the recorded polyreactivity (PSR sort gate) for this entry: QVQLVESGGGLVQAGGSLRLSCAASGSIFDVNAMGWYRQAPGKESELVAAISDSGGSTYYADSVKGRFTISRDNAKTTVYLQMTSLKQEDTAVYYCNADWSWYNYYDFDYWGQGTQVTVSS
Response line: low polyreactivity

Prompt line: State the recorded polyreactivity (PSR sort gate) for this entry: QVQLVESGGGLVQAGGSLRLSCAASGSIFKYFTMGWYRHAPGKERELVAYISSGGSTKYADSVKGRFTISRDNAKNTVYLQMNSLKPEDTAVYYCAKRYYYFYPDYDYWGQGTQVTVSS
Response line: high polyreactivity

Prompt line: State the recorded polyreactivity (PSR sort gate) for this entry: QVQLVESGGGLVQAGGSLRLSCAASGRTFRYYAMGWYRQPPGKERELVAAISISGGNTYYADSVKGRFTISRDNAKNTVYLQMNSLKPEDTAVYYCAAAGRGSGYDYWGQGTQVTVSS
Response line: high polyreactivity

Prompt line: State the recorded polyreactivity (PSR sort gate) for this entry: QVQLLESGGGLLQAGGSLRLSCAASGLTFGKYAMGWYRQAPGKERELVAAINSSGGSTYYADSVKGRFTISRDNAKNTVYLQMNSLKPEDSAVYYRAVAVYRLIYFVYNYWGQGTQVTVSS
Response line: low polyreactivity

Prompt line: State the recorded polyreactivity (PSR sort gate) for this entry: QVQLVESGGGLVQAGGSLRLSCAASGNIFPYYAMGWYRQAPGKERELVASITWSGGRTYYADSVKGRFTISRDNAKNTVYLQMNSLKPEDTAVYYCARRRVYRWYTGDYWGQGTQVTVSS
Response line: low polyreactivity

Prompt line: State the recorded polyreactivity (PSR sort gate) for this entry: QVQLVESGGGLVQAGGSLRLSCAASGRTFYQNAMGWYRQAPGKERELVAAISYRGASTYYADSVKGRFTISRDNAKNTVYLQMHSLKPEDTAVYYCAVAARTRARVLYGYDYWGQGTQVTVSS
Response line: low polyreactivity

Prompt line: State the recorded polyreactivity (PSR sort gate) for this entry: QVQLVESGGGLVQAGGSLRLSSGASGRIFAVYAMGWYRQAPGKERELVAAISYIGGSTYYADSVKGRFTISRDNAKNSVYLQMNSLKPEDTAVYYCATDSHDDTGAYDYWGQGTQVTVSS
Response line: low polyreactivity

Prompt line: State the recorded polyreactivity (PSR sort gate) for this entry: QVQLVESGGGLVQAGGSLRLICAASGSTNPRNAMGWYRQAPGKERELDADITSGGSTNYADSVKGRFTISRDNAKNTVYLQMNRLKPEDTAVYYCAADEQVNTQYVVWGDYWGQGTQVTVSS
Response line: low polyreactivity

Prompt line: State the recorded polyreactivity (PSR sort gate) for this entry: QVQLVESGGGLVQAGGSLSLSCAASGIISTYYVMGWYRQAPGKERELVAAITGGDSSTYYADSVKGRFTISRDNAKNTVYLQMNSLKPEDTAVYYCAKEYYYARGARYDYWGQGTQVTVSS
Response line: low polyreactivity

Prompt line: State the recorded polyreactivity (PSR sort gate) for this entry: QVQLVESGGGLVQAGGSLRLSCAASGITFGVNTMGWYRQAPGKERELVAAITWRGGSTYYADSVKGRFTISRDNAKNTVYLQMNSLKPEDTAVYYCAAPYDGPVLTVGYDYWGQGTQVTVSS
Response line: low polyreactivity

Prompt line: State the recorded polyreactivity (PSR sort gate) for this entry: QVQLVESGGGLVQAGGSLRLSCAASGSIFGNNAMGWYRQAPGKERELVAAISSGGSTNYADSVKGRFTISRDNAKNTVYLQMNSLKPEDTAVYYCATYYFYPSWYLLYGEYNYWGQGTQVTVSS
Response line: low polyreactivity

Prompt line: State the recorded polyreactivity (PSR sort gate) for this entry: QVQLVESGGGLVQAGGSLRLSCAASGSIFGYYSMGWYRQAPGKERELVATITWGGGSTYADSVKGRFTISRDNAKNTVYLQMNSLKPEDTAVYYCNAGYRYTSAQVTWEYDYWGQGTQVTVSS
Response line: low polyreactivity

---

- experimental-details: yeast display, Sf9 membrane polyspecificity reagent, FACS + sequencing; frameworks hold sequencing errors

# item-sequence, polyreactivity (PSR sort gate)
data = [
    ("QVQLVESGGGLVQAGGSLRLSCAASGRTFLRYAMGWYRQAPGKERELVAAISVSGGNTYYADSVKGRFTISRDNAKNTVYLQMKSLKPEDTAVYYCNKARLAAVFSYPYGYWGQGTQVTVSS", "low polyreactivity"),
    ("QVQLVESGGGLVQAGGSLRLSCAASGRNFRDYTMGWYRQAPGKERELVAAITSTGDTNYADSVKGRFTISRDNAKNTVYLQMNSLKPEDTAVYYCATQTGEEYQAPLIYDYWGQGTQVTVSS", "low polyreactivity"),
    ("QVQLVESGGGLDQAGGSLRLSCAASGFIYSWYAMGWYRQAPGKERELVAAISSSGVSTYYADSVKGRFTISRDNAKNTVYLQMNSLKPEDTAVYYCNAYGSVWDRGEYDYEYWGQGTQVTVSS", "low polyreactivity"),
]

The measurements presented in this section are drawn from the nanobody polyreactivity screen of Harvey et al. (2022).
